study target: panel of more than 300 wild-type and mutant kinases (313 kinase panel) (Homo sapiens, UniProt P16234)
Sequence (P16234 24-1089, change not shown): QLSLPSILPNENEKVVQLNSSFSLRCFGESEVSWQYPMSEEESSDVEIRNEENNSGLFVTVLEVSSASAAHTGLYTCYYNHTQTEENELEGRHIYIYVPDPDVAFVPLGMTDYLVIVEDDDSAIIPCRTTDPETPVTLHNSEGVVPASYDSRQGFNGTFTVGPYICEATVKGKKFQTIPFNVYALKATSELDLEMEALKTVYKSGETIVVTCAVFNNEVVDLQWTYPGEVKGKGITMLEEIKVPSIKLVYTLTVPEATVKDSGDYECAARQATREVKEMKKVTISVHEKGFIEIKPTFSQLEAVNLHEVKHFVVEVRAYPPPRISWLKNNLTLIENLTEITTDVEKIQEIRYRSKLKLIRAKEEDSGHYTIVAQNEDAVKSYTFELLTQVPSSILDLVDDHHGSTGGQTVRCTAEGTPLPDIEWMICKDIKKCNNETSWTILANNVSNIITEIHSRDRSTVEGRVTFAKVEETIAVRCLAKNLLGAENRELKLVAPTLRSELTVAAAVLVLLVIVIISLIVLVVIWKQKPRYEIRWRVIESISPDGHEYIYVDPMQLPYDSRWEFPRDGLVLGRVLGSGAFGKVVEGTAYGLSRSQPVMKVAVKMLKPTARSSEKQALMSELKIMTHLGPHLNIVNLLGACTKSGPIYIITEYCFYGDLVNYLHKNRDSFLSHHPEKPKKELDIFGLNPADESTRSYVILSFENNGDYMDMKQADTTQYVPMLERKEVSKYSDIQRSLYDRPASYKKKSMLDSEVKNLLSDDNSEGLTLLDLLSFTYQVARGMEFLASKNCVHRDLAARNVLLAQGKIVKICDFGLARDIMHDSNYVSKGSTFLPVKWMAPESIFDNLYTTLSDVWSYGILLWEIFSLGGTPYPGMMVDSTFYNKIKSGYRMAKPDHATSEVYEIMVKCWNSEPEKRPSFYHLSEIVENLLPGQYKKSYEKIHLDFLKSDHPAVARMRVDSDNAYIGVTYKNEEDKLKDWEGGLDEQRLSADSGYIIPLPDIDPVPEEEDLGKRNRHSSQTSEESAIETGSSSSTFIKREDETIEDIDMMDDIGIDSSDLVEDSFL
experiment summary: Kinase profiling in a biochemical assay panel (mobility shift assays and ELISA), %-inhibition at 1 μM; selectivity entropy
reported conditions: kinase PDGFRα; 1 μM
Label Y for high-side %-inhibition of PDGFRα (at or above 80%) and N for low-side %-inhibition of PDGFRα (below it).

[
  {
    "smiles data": "COc1cc(Nc2c(C#N)cnc3cc(OCCCN4CCN(C)CC4)c(OC)cc23)c(Cl)cc1Cl",
    "label class": "N"
  },
  {
    "smiles data": "CCCS(=O)(=O)Nc1ccc(F)c(C(=O)c2c[nH]c3ncc(-c4ccc(Cl)cc4)cc23)c1F",
    "label class": "Y"
  },
  {
    "smiles data": "CC(C)(C)c1nc(-c2cccc(NS(=O)(=O)c3c(F)cccc3F)c2F)c(-c2ccnc(N)n2)s1",
    "label class": "N"
  },
  {
    "smiles data": "Cc1ccc(C(=O)Nc2ccc(CN3CCN(C)CC3)c(C(F)(F)F)c2)cc1C#Cc1cnc2cccnn12",
    "label class": "Y"
  }
]

Incoming: Does the compound `CO[C@H]1C[C@@H]2CC[C@@H](C)[C@@](O)(O2)C(=O)C(=O)N2CCCC[C@H]2C(=O)O[C@H]([C@H](C)C[C@@H]2CC[C@@H](OCCO)[C@H](OC)C2)CC(=O)[C@H](C)/C=C(\C)[C@@H](O)[C@@H](OC)C(=O)[C@H](C)C[C@H](C)/C=C/C=C/C=C/1C` have recorded %-inhibition of PDGFRα that is 80% or more?
Outgoing: N

Incoming: Would you mind doing `CC(=O)Nc1cccc(-n2c(=O)n(C3CC3)c(=O)c3c(Nc4ccc(I)cc4F)n(C)c(=O)c(C)c32)c1` as well?
Outgoing: N

Incoming: Would you mind doing `CNC(=O)c1cc(Oc2ccc(NC(=O)Nc3ccc(Cl)c(C(F)(F)F)c3)c(F)c2)ccn1` as well?
Outgoing: Y

###

study target: panel of more than 300 wild-type and mutant kinases (313 kinase panel) (Homo sapiens, UniProt P21709)
Sequence (P21709 26-976, change not shown): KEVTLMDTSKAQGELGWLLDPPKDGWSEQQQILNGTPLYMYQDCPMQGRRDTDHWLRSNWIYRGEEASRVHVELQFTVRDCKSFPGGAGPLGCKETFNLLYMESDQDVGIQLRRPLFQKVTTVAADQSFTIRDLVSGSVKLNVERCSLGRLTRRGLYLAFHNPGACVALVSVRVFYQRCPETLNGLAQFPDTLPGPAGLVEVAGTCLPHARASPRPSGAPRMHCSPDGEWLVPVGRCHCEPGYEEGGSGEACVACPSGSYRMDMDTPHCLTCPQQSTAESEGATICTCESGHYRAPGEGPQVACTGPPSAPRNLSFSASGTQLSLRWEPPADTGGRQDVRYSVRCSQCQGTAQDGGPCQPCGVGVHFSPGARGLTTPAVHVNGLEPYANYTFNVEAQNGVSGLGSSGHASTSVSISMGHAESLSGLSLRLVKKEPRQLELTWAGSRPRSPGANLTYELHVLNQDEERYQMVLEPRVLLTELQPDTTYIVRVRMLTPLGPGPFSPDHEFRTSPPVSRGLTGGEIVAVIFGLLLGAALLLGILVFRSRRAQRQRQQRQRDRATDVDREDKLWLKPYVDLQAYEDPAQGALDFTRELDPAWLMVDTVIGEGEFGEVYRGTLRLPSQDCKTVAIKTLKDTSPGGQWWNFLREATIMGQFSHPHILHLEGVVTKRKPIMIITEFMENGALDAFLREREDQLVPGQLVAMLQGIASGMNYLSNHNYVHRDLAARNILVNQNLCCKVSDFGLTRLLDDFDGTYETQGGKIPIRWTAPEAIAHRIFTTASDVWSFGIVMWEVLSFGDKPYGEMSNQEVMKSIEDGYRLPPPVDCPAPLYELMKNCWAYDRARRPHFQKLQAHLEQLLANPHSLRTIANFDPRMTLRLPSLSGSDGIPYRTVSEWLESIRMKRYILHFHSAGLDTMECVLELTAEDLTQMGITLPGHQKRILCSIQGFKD
experiment summary: Kinase profiling in a biochemical assay panel (mobility shift assays and ELISA), %-inhibition at 1 μM; selectivity entropy
reported conditions: kinase EPHA1; compound at 1 μM
Listed here are compounds together with their documented %-inhibition of EPHA1.
State the answer as a number, implicitly in %.

Please review the entries below; each comes with its answer.
[
  {
    "smiles data": "CS(=O)(=O)CCNCc1ccc(-c2ccc3ncnc(Nc4ccc(OCc5cccc(F)c5)c(Cl)c4)c3c2)o1",
    "assay result": 6
  },
  {
    "smiles data": "CO[C@H]1C[C@@H]2CC[C@@H](C)[C@@](O)(O2)C(=O)C(=O)N2CCCC[C@H]2C(=O)O[C@H]([C@H](C)C[C@@H]2CC[C@@H](OCCO)[C@H](OC)C2)CC(=O)[C@H](C)/C=C(\\C)[C@@H](O)[C@@H](OC)C(=O)[C@H](C)C[C@H](C)/C=C/C=C/C=C/1C",
    "assay result": -10
  },
  {
    "smiles data": "N#CC[C@H](C1CCCC1)n1cc(-c2ncnc3[nH]ccc23)cn1",
    "assay result": 43
  },
  {
    "smiles data": "Cc1ccc(C(=O)Nc2ccc(CN3CCN(C)CC3)c(C(F)(F)F)c2)cc1C#Cc1cnc2cccnn12",
    "assay result": 97
  },
  {
    "smiles data": "CNC(=O)c1cc(Oc2ccc(NC(=O)Nc3ccc(Cl)c(C(F)(F)F)c3)c(F)c2)ccn1",
    "assay result": 55
  }
]

Consider now this further compound.
Incoming: What does the data say about its %-inhibition of EPHA1? Entry: `CC(C)(C)c1nc(-c2cccc(NS(=O)(=O)c3c(F)cccc3F)c2F)c(-c2ccnc(N)n2)s1`
Outgoing: 44

###

study target: panel of more than 300 wild-type and mutant kinases (313 kinase panel) (Homo sapiens, UniProt Q9Y2H1)
Sequence (Q9Y2H1 whole entry, change not shown): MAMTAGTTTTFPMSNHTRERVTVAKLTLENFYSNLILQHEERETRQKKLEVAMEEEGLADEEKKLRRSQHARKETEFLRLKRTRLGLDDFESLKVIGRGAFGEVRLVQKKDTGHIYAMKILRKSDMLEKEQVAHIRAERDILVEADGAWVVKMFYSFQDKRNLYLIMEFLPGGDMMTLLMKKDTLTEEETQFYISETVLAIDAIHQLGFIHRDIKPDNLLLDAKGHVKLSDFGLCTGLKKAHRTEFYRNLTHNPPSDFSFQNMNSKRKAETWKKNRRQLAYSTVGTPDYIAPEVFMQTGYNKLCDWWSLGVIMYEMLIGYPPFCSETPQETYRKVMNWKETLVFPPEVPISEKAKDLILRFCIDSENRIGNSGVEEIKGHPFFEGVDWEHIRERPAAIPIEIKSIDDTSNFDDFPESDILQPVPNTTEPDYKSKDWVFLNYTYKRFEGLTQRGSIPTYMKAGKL
experiment summary: Kinase profiling in a biochemical assay panel (mobility shift assays and ELISA), %-inhibition at 1 μM; selectivity entropy
reported conditions: kinase NDR2; 1 μM
endpoint: %-inhibition of NDR2 (%)
State the answer as a number, implicitly in %.

[
  {
    "compound": "CO[C@H]1C[C@@H]2CC[C@@H](C)[C@@](O)(O2)C(=O)C(=O)N2CCCC[C@H]2C(=O)O[C@H]([C@H](C)C[C@@H]2CC[C@@H](OCCO)[C@H](OC)C2)CC(=O)[C@H](C)/C=C(\\C)[C@@H](O)[C@@H](OC)C(=O)[C@H](C)C[C@H](C)/C=C/C=C/C=C/1C [everolimus]",
    "endpoint": "%-inhibition of NDR2",
    "assay result": -8
  }
]

Incoming: What does the data say about its %-inhibition of NDR2? Entry: COc1cc2nccc(Oc3ccc(NC(=O)C4(C(=O)Nc5ccc(F)cc5)CC4)cc3)c2cc1OC [cabozantinib]
Outgoing: -6

Incoming: Would you mind doing Cc1nc(Nc2ncc(C(=O)Nc3c(C)cccc3Cl)s2)cc(N2CCN(CCO)CC2)n1 [dasatinib] as well?
Outgoing: -6

Incoming: Would you mind doing Cc1ccc(Nc2nccc(N(C)c3ccc4c(C)n(C)nc4c3)n2)cc1S(N)(=O)=O [pazopanib] as well?
Outgoing: 2.36

Incoming: Would you mind doing COc1cc2c(Nc3ccc(Br)cc3F)ncnc2cc1OCC1CCN(C)CC1 [vandetanib] as well?
Outgoing: -9

Incoming: Would you mind doing CCCS(=O)(=O)Nc1ccc(F)c(C(=O)c2c[nH]c3ncc(-c4ccc(Cl)cc4)cc23)c1F [vemurafenib] as well?
Outgoing: -2.51

Incoming: Would you mind doing CS(=O)(=O)CCNCc1ccc(-c2ccc3ncnc(Nc4ccc(OCc5cccc(F)c5)c(Cl)c4)c3c2)o1 [lapatinib] as well?
Outgoing: -6

Incoming: Would you mind doing O=S(=O)(c1cccc2cnccc12)N1CCCNCC1 [fasudil] as well?
Outgoing: 25

Incoming: Would you mind doing CC(C)(C)c1nc(-c2cccc(NS(=O)(=O)c3c(F)cccc3F)c2F)c(-c2ccnc(N)n2)s1 [dabrafenib] as well?
Outgoing: -2

Incoming: Would you mind doing CO[C@H]1C[C@@H]2CC[C@@H](C)[C@@](O)(O2)C(=O)C(=O)N2CCCC[C@H]2C(=O)O[C@H]([C@H](C)C[C@@H]2CC[C@@H](OC(=O)C(C)(CO)CO)[C@H](OC)C2)CC(=O)[C@H](C)/C=C(\C)[C@@H](O)[C@@H](OC)C(=O)[C@H](C)C[C@H](C)/C=C/C=C/C=C/1C [temsirolimus] as well?
Outgoing: -3.63

Incoming: Would you mind doing CNC(=O)c1cc(Oc2ccc(NC(=O)Nc3ccc(Cl)c(C(F)(F)F)c3)c(F)c2)ccn1 [regorafenib] as well?
Outgoing: -8.54

###

study target: panel of more than 300 wild-type and mutant kinases (313 kinase panel) (Homo sapiens, UniProt P11309)
experiment summary: Kinase profiling in a biochemical assay panel (mobility shift assays and ELISA), %-inhibition at 1 μM; selectivity entropy
reported conditions: kinase PIM1; 1 μM
Listed here are compounds together with their documented %-inhibition of PIM1.
State the answer as a number, implicitly in %.

Please review the entries below; each comes with its answer.
[
  {
    "smiles data": "CCCS(=O)(=O)Nc1ccc(F)c(C(=O)c2c[nH]c3ncc(-c4ccc(Cl)cc4)cc23)c1F",
    "%-inhibition of PIM1 [%]": -3.41
  },
  {
    "smiles data": "Cc1ccc(Nc2nccc(N(C)c3ccc4c(C)n(C)nc4c3)n2)cc1S(N)(=O)=O",
    "%-inhibition of PIM1 [%]": -1.49
  },
  {
    "smiles data": "CNC(=O)c1cc(Oc2ccc(NC(=O)Nc3ccc(Cl)c(C(F)(F)F)c3)c(F)c2)ccn1",
    "%-inhibition of PIM1 [%]": -9
  }
]

Incoming: What does the data say about its %-inhibition of PIM1? Entry: `CC(=O)Nc1cccc(-n2c(=O)n(C3CC3)c(=O)c3c(Nc4ccc(I)cc4F)n(C)c(=O)c(C)c32)c1`
Outgoing: 4.44

###

Listed here are compounds together with their documented %-inhibition, CaMK2δ.
study target: panel of more than 300 wild-type and mutant kinases (313 kinase panel) (Homo sapiens, UniProt Q13557)
Sequence (Q13557 whole entry, change not shown): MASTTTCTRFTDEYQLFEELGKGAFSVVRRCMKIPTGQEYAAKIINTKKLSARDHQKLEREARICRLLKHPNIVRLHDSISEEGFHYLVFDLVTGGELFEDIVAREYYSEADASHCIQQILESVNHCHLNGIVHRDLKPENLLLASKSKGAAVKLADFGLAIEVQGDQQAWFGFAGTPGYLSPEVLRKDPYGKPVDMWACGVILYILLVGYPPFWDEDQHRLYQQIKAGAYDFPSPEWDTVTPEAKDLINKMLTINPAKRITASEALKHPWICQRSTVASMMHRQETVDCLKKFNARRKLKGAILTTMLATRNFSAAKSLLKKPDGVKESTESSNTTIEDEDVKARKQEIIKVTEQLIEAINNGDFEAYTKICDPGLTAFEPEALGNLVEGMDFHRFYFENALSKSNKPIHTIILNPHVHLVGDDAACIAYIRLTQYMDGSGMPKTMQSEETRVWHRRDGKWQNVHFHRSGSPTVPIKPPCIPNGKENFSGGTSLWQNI
experiment summary: Kinase profiling in a biochemical assay panel (mobility shift assays and ELISA), %-inhibition at 1 μM; selectivity entropy
reported conditions: kinase CaMK2δ; 1 μM compound
State the answer as a number, implicitly in %.

[
  {
    "smiles data": "CO[C@H]1C[C@@H]2CC[C@@H](C)[C@@](O)(O2)C(=O)C(=O)N2CCCC[C@H]2C(=O)O[C@H]([C@H](C)C[C@@H]2CC[C@@H](OCCO)[C@H](OC)C2)CC(=O)[C@H](C)/C=C(\\C)[C@@H](O)[C@@H](OC)C(=O)[C@H](C)C[C@H](C)/C=C/C=C/C=C/1C",
    "unit info": "%",
    "%-inhibition, CaMK2δ": -2.12
  },
  {
    "smiles data": "Cc1ccc(Nc2nccc(N(C)c3ccc4c(C)n(C)nc4c3)n2)cc1S(N)(=O)=O",
    "unit info": "%",
    "%-inhibition, CaMK2δ": 1.54
  },
  {
    "smiles data": "CCCS(=O)(=O)Nc1ccc(F)c(C(=O)c2c[nH]c3ncc(-c4ccc(Cl)cc4)cc23)c1F",
    "unit info": "%",
    "%-inhibition, CaMK2δ": -0.235
  }
]

Consider now this further compound.
Incoming: What does the data say about its %-inhibition, CaMK2δ? Entry: `C[C@@H](Oc1cc(-c2cnn(C3CCNCC3)c2)cnc1N)c1c(Cl)ccc(F)c1Cl`
Outgoing: 4
